// parasite growth, % of control (lower = inhibition) lookup, one value per entry
Assay: qHTS profiling of the MIPE4 collection as inhibitors of Plasmodium falciparum (DD2) proliferation (Rep 2) (AID 743346)
Settings: P. falciparum Dd2 in erythrocytes, SYBR Green DNA, 72 h; at 28.5 µM unless noted
Property label: parasite growth, % of control (lower = inhibition)

> print(dat)
                                    compound  reported
 1                    O=c1ccc2ccc(O)c(O)c2o1     19.7%
 2       COc1cc(OC)c(C(=O)CCCN2CCCC2)c(OC)c1     38.2%
 3                  Cc1cc(Cl)ccc1OCCCC(=O)NO     42.1%
 4            Cc1cc2cc3c(C)cc(=O)oc3c(C)c2o1     91.1%
 5  N[C@@H](Cc1cc(I)c(Oc2cc(I)c(O)c(I)c2)c(I)c1)C(=O)O     91.7%
 6  CCCCC(CC)COC(=O)C(C#N)=C(c1ccccc1)c1ccccc1 (stereo unspecified)     11.9%
 7  Nc1cc(C(Cl)=C(Cl)Cl)c(S(N)(=O)=O)cc1S(N)(=O)=O      142%
 8  CCOC(=O)C(C)Oc1cccc2c(=O)n(CC(=O)Nc3ccc4c(c3)OCCO4)ccc12 (stereo unspecified)     81.6%
 9  O=C(NC(Cc1cc(=O)[nH]c2ccccc12)C(=O)O)c1ccc(Cl)cc1 (stereo unspecified)     89.9%
10  CCC(C)(Oc1ccc(C2(c3ccc(OC(C)(CC)C(=O)O)cc3)CCCCC2)cc1)C(=O)O (stereo unspecified)     73.7%
11  CC1=C(C)C(=O)C(C(CCCCCC(=O)O)c2ccccc2)=C(C)C1=O (stereo unspecified)       46%

====

Assay: Quantitative High-Throughput drug screen in 47 multiple myeloma cell lines against the NCATS MIPE library collection: NCIH929_DSMZ cell viability assay (AID 1918978); also: nearly all actives have a fitted effect of over 35% in size; also: potency is read from the fitted curve at half-maximal effect
Details: NCI-H929 myeloma viability, CellTiter-Glo ATP, 48 h; series mostly up to 45.8 µM
Inconclusive results are not listed. Calls of active or inactive are those of the source. The call rests on the fitted dose curve; in most records, active means well fitted cell-killing curve with a large enough effect; inconclusive means small, poorly fitted or top-dose-only effect; inactive means no such curve, though single readings can be large or run the other way.
Property label: Potency

Compound	Property label	Reported
CCCS(=O)c1ccc2nc(NC(=O)OC)[nH]c2c1 (stereo not given)	Potency	inactive
CCCCc1ccc2nc(NC(=O)OC)[nH]c2c1	Potency	0.935 µM (active)
C[Se]CCC(N)C(=O)O (stereo not given)	Potency	inactive
Cc1cc(C2CCCCC2)n(O)c(=O)c1	Potency	7.43 µM (active)
CC(=O)O[C@H]1C(=O)[C@@]2(C)C([C@H](OC(=O)c3ccccc3)[C@]3(O)C[C@H](OC(=O)[C@H](O)[C@@H](NC(=O)c4ccccc4)c4ccccc4)C(C)=C1C3(C)C)[C@]1(OC(C)=O)CO[C@@H]1C[C@@H]2O (stereo not given in full)	Potency	inactive
Oc1ccc2ccccc2c1SSc1c(O)ccc2ccccc12	Potency	8.33 µM (active)
COc1cc(C(C)=O)ccc1OCCCN1CCC(c2noc3cc(F)ccc23)CC1	Potency	18.7 µM (active)
CCOC(=O)C(C)Oc1cccc2c(=O)n(CC(=O)Nc3ccc4c(c3)OCCO4)ccc12 (stereo not given)	Potency	inactive
CC(C)(S)[C@@H](N)C(=O)O	Potency	inactive
C=CCc1cc(OC)c(O)c(C(=O)NCCO)c1	Potency	inactive

These entries and their values trace back to PubChem BioAssay (NCATS).
